Entry source: paper PMC9490236

tested on: Caco-2 cells; assay: Caco-2 permeability assay (apical to basolateral); format: in vitro ADME, human; conditions: Caco-2
Where a SMILES comes first, the peptide text is derived from it. [ ]: non-standard residue; d: D form. dNMeI = CC[C@@H](C)[C@@H](NC)C(=O)O; NMeF = CN[C@@H](Cc1ccccc1)C(=O)O
Each entry below lists one item and its recorded Caco_R1 value.
Reply: number alone, nothing else.

COMPOUND | MEASURED_TARGET | MEASURED_METRIC | QUANTITATIVE_RESULT
CC[C@@H](C)[C@H]1NC(=O)[C@H]([C@@H](C)CC)NC(=O)[C@H](Cc2ccccc2)N(C)C(=O)[C@H]2CCCN2C(=O)[C@@H]([C@H](C)CC)NC(=O)[C@@H]([C@H](C)CC)N(C)C(=O)[C@H](CC(C)C)NC(=O)[C@H]2CCCN2C(=O)[C@@H]2CCCN2C(=O)[C@H](C(C)C)NC(=O)[C@H]2CCCN2C1=O [Design D11.4] (cyclo(I[dI][dP]VP[dP]L[dNMeI][dI][dP][NMeF])) | Caco-2 cells | Caco_R1 | 3.83

What the record says about CC[C@H](C)[C@@H]1NC(=O)[C@@H](CC(C)C)NC(=O)[C@H](CC(C)C)N(C)C(=O)[C@H](Cc2ccccc2)NC(=O)CN(C)C(=O)[C@@H]2CCCN2C(=O)[C@H](C(C)C)NC(=O)[C@H](Cc2ccccc2)N(C)C(=O)[C@H]2CCCN2C(=O)[C@H](CC(C)C)NC1=O (single isomer, unassigned) [Design D10.1.p1] : Caco_R1 is 8.51

* * *

assay: in vitro; conditions: PAMPA, PAMPA_Papp_Avg
Where a SMILES comes first, the peptide text is derived from it. [ ]: non-standard residue; d: D form. NMeL = CN[C@@H](CC(C)C)C(=O)O; dNMeL = CN[C@H](CC(C)C)C(=O)O; NMeA = CN[C@@H](C)C(=O)O; dNMeA = CN[C@H](C)C(=O)O
Reported Papp values are given for each entry in this list.
# number only, unit nm/s dropped from output

COMPOUND | QUANTITATIVE_RESULT
CC[C@@H](C)[C@H]1NC(=O)[C@H](C)NC(=O)[C@@H](CC(C)C)N(C)C(=O)[C@H](CC(C)C)N(C)C(=O)[C@H](C(C)C)NC(=O)[C@@H]2CCCN2C(=O)[C@@H](CC(C)C)N(C)C(=O)[C@@H](C)N(C)C(=O)[C@@H](Cc2ccccc2)NC(=O)[C@@H]2CCCN2C(=O)[C@H]2CCCN2C1=O [Design D11.6] (cyclo([dF][dNMeA][dNMeL]PV[NMeL][dNMeL]A[dI][dP]P)) | 9.49
CC(C)C[C@H]1NC(=O)[C@H](CC(C)C)N(C)C(=O)[C@@H](Cc2ccccc2)NC(=O)[C@@H](C)N(C)C(=O)[C@@H]2CCCN2C(=O)[C@H](C(C)C)NC(=O)[C@H](CC(C)C)N(C)C(=O)[C@@H](C)NC(=O)[C@@H]2CCCN2C(=O)[C@H]2CCCN2C1=O [Design D10.32] (cyclo([dA][NMeL]VP[dNMeA][dF][NMeL][dL][dP]P)) | 31.8
CC(C)[C@@H]1C(=O)N[C@@H](Cc2ccccc2)C(=O)N2CCC[C@H]2C(=O)N(C)[C@H](Cc2ccccc2)C(=O)N[C@H](C)C(=O)N2CCC[C@H]2C(=O)N1C (single isomer, unassigned) [Design D6.8.p1, *DPHE DALA PRO *DVAL PHE PRO] | 34.7
CC(C)C[C@H]1NC(=O)[C@H]2CCCN2C(=O)[C@H](CC(C)C)N(C)C(=O)[C@@H](C)N(C)C(=O)[C@@H](Cc2ccccc2)NC(=O)[C@@H](C(C)C)NC(=O)[C@H]2CCCN2C(=O)[C@@H](CC(C)C)NC1=O [Design D8.19, DPHE *DALA *LEU DPRO DLEU DLEU DPRO DVAL] (cyclo([NMeL][dP][dL][dL][dP][dV][dF][dNMeA])) | 28.8
CC(C)C[C@@H]1NC(=O)[C@@H](CC(C)C)NC(=O)[C@@H]2CCCN2C(=O)[C@@H](CC(C)C)NC(=O)[C@H](C)N(C)C(=O)[C@H](C)NC(=O)[C@H](CC(C)C)N(C)C(=O)[C@@H]2CCCN2C(=O)[C@H](CC(C)C)NC(=O)[C@H](CC(C)C)N(C)C1=O [Design D10.16] (cyclo(A[NMeA][dL]P[dL]L[NMeL]LP[NMeL])) | 22.7

// moving on: another record for Papp
Documented Papp of CC[C@H](C)[C@@H]1NC(=O)[C@H](Cc2ccccc2)N(C)C(=O)[C@H](CC(C)C)N(C)C(=O)[C@@H](C(C)C)NC(=O)[C@@H](C)NC(=O)[C@@H]2CCCN2C(=O)[C@@H](CC(C)C)NC(=O)[C@@H]2CCCN2C(=O)[C@H](C)NC1=O [Design D9.6, PRO DALA DVAL *LEU *PHE ILE ALA PRO DLEU] : 16.3

* * *

assay: Pharmacokinetics and oral bioavailability of D8.3.p1 and D10.1 in Balb/C female mice (PO, SQ, IV); type: in vivo; conditions: female, Balb/C, mouse, plasma; D10.1 PO 12.2 mg/kg, mean n=3; read-out: AUC0-t (converted)
MEASURED_METRIC: AUC(0-t) (µM·h)
State the answer as a number, implicitly in µM·h.

The reported value for "CC[C@H](C)[C@@H]1NC(=O)[C@@H](CC(C)C)NC(=O)[C@H](CC(C)C)N(C)C(=O)[C@H](Cc2ccccc2)NC(=O)CN(C)C(=O)[C@@H]2CCCN2C(=O)[C@H](C(C)C)NC(=O)[C@H](Cc2ccccc2)N(C)C(=O)[C@H]2CCCN2C(=O)[C@H](CC(C)C)NC1=O" in terms of AUC(0-t) is 4.51

* * *

test: Caco-2 permeability assay (apical to basolateral); type: in vitro ADME, human; details: human, Caco-2
Where a SMILES comes first, the peptide text is derived from it. [ ]: non-standard residue; d: D form. dNMeL = CN[C@H](CC(C)C)C(=O)O; NMeA = CN[C@@H](C)C(=O)O
MEASURED_METRIC: Papp at 90 min, 50 µM

The value of Papp at 90 min, 50 µM measured for the compound CC[C@@H](C)[C@H]1NC(=O)[C@@H](Cc2ccccc2)NC(=O)[C@@H](CC(C)C)NC(=O)[C@@H]2CCCN2C(=O)[C@H]2CCCN2C(=O)[C@H](CC(C)C)NC(=O)[C@H](CC(C)C)NC(=O)[C@@H](CC(C)C)N(C)C(=O)[C@H](C)N(C)C(=O)[C@H]2CCCN2C1=O [Design D10.34] (cyclo([dL][dF][dI][dP][NMeA][dNMeL]LL[dP]P)) turned out to be > 10 ×10⁻⁶ cm/s

* * *

tested on: Caco-2 cells; assay: Caco-2 permeability assay (apical to basolateral); format: in vitro ADME, human; conditions: Caco-2
Where a SMILES comes first, the peptide text is derived from it. [ ]: non-standard residue; d: D form. NMeF = CN[C@@H](Cc1ccccc1)C(=O)O; NMeL = CN[C@@H](CC(C)C)C(=O)O; dNMeL = CN[C@H](CC(C)C)C(=O)O; NMeA = CN[C@@H](C)C(=O)O; dNMeA = CN[C@H](C)C(=O)O; Aib = CC(C)(N)C(=O)O
Each entry gets Not met if its Caco_R1 stays under 4, and Met if its Caco_R1 is 4 or above.

Past entries and their recorded results:
COMPOUND | LABEL_CLASS
CC[C@H](C)[C@@H]1NC(=O)[C@H](Cc2ccccc2)N(C)C(=O)[C@H]2CCCN2C(=O)[C@H]([C@@H](C)CC)NC(=O)[C@@H](C)N(C)C(=O)[C@@H](C)NC(=O)[C@@H]2CCCN2C(=O)[C@H]2CCCN2C(=O)[C@H](CC(C)C)NC(=O)[C@@H](CC(C)C)NC(=O)[C@H](CC(C)C)NC(=O)[C@H]2CCCN2C1=O [Design D12.6] (cyclo([dA][dNMeA]I[dP][NMeF]I[dP]L[dL]L[dP]P)) | Not met
CC(C)C[C@@H]1C(=O)N[C@H](CC(C)C)C(=O)N2CCC[C@@H]2C(=O)N2CCC[C@@H]2C(=O)N(C)[C@@H](C)C(=O)N[C@H](Cc2ccccc2)C(=O)N[C@@H](C)C(=O)N(C)[C@@H](CC(C)C)C(=O)N1C [Design D8.10, DPRO DPRO *ALA DPHE ALA *LEU *DLEU DLEU] (cyclo(A[NMeL][dNMeL][dL][dP][dP][NMeA][dF])) | Not met
CC[C@@H](C)[C@H]1NC(=O)[C@@H](CC(C)C)NC(=O)C(C)(C)NC(=O)[C@@H]2CCCN2C(=O)[C@@H]([C@H](C)CC)NC(=O)[C@@H](CC(C)C)NC(=O)C(C)(C)NC(=O)[C@@H]2CCCN2C1=O [Design D8.2, PRO AIB DLEU DILE PRO AIB DLEU DILE] (cyclo([Aib][dL][dI]P[Aib][dL][dI]P)) | Met

**Query** Has CC[C@H](C)[C@@H]1NC(=O)[C@H]2CCCN2C(=O)[C@@H]2CCCN2C(=O)[C@@H](C(C)C)NC(=O)[C@@H](C)N(C)C(=O)[C@H](C)N(C)C(=O)[C@@H](CC(C)C)N(C)C(=O)[C@@H](C(C)C)NC1=O [Design D8.26, DVAL *DLEU *ALA *DALA DVAL PRO DPRO ILE] (cyclo(I[dV][dNMeL][NMeA][dNMeA][dV]P[dP])) a recorded Caco_R1 greater than or equal to 4?
**Result** Not met

**Query** Identify whether the reported Caco_R1 of the following compound is 4 or greater: CC(C)C[C@@H]1NC(=O)[C@@H]2CCCN2C(=O)[C@@H](Cc2ccccc2)NC(=O)[C@H](C)N(C)C(=O)[C@H](CC(C)C)NC(=O)[C@H](CC(C)C)N(C)C(=O)[C@@H](C)NC(=O)[C@@H](CC(C)C)NC(=O)[C@@H]2CCCN2C(=O)[C@@H](Cc2ccccc2)NC1=O (single isomer, unassigned) [Design D10.2.p2]
**Result** Not met

**Query** Check if Caco_R1 >= 4 (inclusive). Item: CC[C@H](C)[C@@H]1NC(=O)[C@@H]2CCCN2C(=O)[C@H]2CCCN2C(=O)[C@@H](CC(C)C)NC(=O)[C@@H](CC(C)C)N(C)C(=O)[C@@H](C(C)C)NC(=O)[C@H](C(C)C)NC(=O)[C@H]2CCCN2C(=O)[C@@H]2CCCN2C(=O)[C@H]([C@@H](C)CC)NC(=O)[C@H](C)N(C)C1=O [Design D11.13] (cyclo(I[NMeA]IP[dP]V[dV][dNMeL][dL][dP]P))
**Result** Met
